Exercise: state measured inhibition for each of the compounds provided.
target_under_test: Serine/threonine-protein kinase Chk1 (Homo sapiens) (UniProt O14757);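 further: mean inhibition of CHEK1, part of the GSK PKIS profiling set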
Sequence (O14757 whole entry): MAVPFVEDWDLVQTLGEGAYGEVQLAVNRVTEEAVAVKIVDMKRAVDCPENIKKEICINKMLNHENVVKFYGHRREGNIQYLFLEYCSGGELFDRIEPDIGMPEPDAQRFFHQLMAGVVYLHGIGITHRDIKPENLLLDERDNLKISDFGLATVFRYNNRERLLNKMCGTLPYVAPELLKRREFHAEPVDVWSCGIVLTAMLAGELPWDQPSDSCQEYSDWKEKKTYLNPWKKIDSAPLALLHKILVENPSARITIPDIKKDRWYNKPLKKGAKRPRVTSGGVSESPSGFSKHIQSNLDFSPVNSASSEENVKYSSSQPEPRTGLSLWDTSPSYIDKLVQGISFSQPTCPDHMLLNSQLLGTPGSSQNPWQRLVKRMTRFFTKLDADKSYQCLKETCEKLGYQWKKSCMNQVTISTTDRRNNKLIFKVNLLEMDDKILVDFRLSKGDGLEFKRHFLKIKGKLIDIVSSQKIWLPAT
details: at 1 µM
// note: answer is a bare numeric in %

Supply measured inhibition of O=C1Nc2ccc(C(=O)c3ccco3)cc2C1=Cc1cc(Cl)c(O)c(Cl)c1 in your reply.
5.95

Supply measured inhibition of N#Cc1c(NC(=O)c2cccc3ccccc23)sc2c1CCCC2 in your reply.
10.4

Supply measured inhibition of COc1ccc(COc2ccc(Cc3cnc(N)nc3N)cc2OC)cc1 in your reply.
7.23

Supply measured inhibition of CCn1c(-c2nonc2N)nc2c(C#CC(C)(C)O)nc(OC[C@@H](N)c3ccccc3)cc21 in your reply.
7.52

Supply measured inhibition of CC(=O)Nc1cccc(C#Cc2cncnc2Nc2ccc(OCc3cccc(F)c3)c(Cl)c2)n1 in your reply.
5.32

---

target_under_test: Fibroblast growth factor receptor 4 (Homo sapiens) (UniProt P22455);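 further: values are mean percent inhibition of FGFR4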
Sequence (P22455 22-802 limits assumed): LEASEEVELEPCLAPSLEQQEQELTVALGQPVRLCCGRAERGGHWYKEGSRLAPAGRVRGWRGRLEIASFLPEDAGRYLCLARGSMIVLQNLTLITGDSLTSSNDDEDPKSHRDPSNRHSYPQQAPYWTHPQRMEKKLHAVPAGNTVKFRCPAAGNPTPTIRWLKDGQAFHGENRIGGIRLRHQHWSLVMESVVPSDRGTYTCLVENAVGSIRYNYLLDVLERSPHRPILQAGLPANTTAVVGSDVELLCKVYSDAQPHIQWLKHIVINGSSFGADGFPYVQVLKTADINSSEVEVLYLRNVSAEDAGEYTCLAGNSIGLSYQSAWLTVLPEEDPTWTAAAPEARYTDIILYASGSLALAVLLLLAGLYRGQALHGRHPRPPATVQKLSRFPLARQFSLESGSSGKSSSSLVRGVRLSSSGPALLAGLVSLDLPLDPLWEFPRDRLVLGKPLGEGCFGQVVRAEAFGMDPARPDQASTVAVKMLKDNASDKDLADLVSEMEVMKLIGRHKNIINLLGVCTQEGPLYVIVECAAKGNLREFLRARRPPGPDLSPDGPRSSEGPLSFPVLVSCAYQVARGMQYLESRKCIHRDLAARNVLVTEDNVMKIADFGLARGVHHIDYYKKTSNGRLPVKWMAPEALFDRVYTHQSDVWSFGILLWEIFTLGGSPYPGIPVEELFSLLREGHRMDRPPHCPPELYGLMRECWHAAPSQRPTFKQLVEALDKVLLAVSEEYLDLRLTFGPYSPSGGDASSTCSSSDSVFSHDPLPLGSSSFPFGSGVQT
details: at 0.1 µM
reported_property: inhibition (%)
// note: answer is a bare numeric in %

Supply measured inhibition of O=C1Nc2ccc(C(=O)c3ccco3)cc2C1=Cc1cc(Cl)c(O)c(Cl)c1 in your reply.
2.69

Supply measured inhibition of COc1ccc2cc(-c3c(-c4ccncc4)nc(-c4ccc([S+](C)[O-])cc4)n3C)ccc2c1 (stereo not given) in your reply.
0.03

Supply measured inhibition of CN1CCC(C(=O)Nc2n[nH]c3nnc(-c4ccccc4)cc23)CC1 in your reply.
-8.44

Supply measured inhibition of COc1cc2ncn(-c3cc(OCc4ccccc4Cl)c(C(N)=O)s3)c2cc1OC in your reply.
-5.86

Supply measured inhibition of CCn1c(-c2nonc2N)nc2c(C#CC(C)(C)O)nc(CN3CCCC3)cc21 in your reply.
-0.75

Supply measured inhibition of CCn1c(-c2nonc2N)nc2ccncc21 in your reply.
-8.14

Supply measured inhibition of [O-][S+]1CCN(Cc2ccc(-c3ccc4ncnc(Nc5ccc(OCc6ccccc6)c(F)c5)c4c3)o2)CC1 in your reply.
0.38

Supply measured inhibition of COc1cc2ncn(-c3cc(O[C@@H](C)c4ccccc4Cl)c(C(N)=O)s3)c2cc1OC in your reply.
0.49

Supply measured inhibition of Fc1cccc(COc2ccc(Nc3ncnc4sc(-c5cccs5)cc34)cc2Cl)c1 in your reply.
0.35

Supply measured inhibition of Nc1ncnc2occ(-c3ccc(NC(=O)Nc4cc(C(F)(F)F)cc(C(F)(F)F)c4)cc3)c12 in your reply.
3.02

Supply measured inhibition of CN(C)c1cc2c(Nc3ccc4nc(Cc5ccccc5)[nH]c4c3)ncnc2cn1 in your reply.
2.81

Supply measured inhibition of Cc1cccc(-c2n[nH]cc2-c2ccc3ncccc3n2)n1 in your reply.
3.49

Supply measured inhibition of Cc1cc(O)cc(C)c1/C=C/c1cncc(-c2nn[nH]n2)c1 in your reply.
-9.13

Supply measured inhibition of COc1ccc(-c2nn3ncccc3c2-c2ccnc(Nc3ccc(Cl)c(C(F)(F)F)c3)n2)cc1 in your reply.
0.28

Supply measured inhibition of NC(=O)c1cccc(Nc2nccc(Nc3cccc4[nH]ncc34)n2)c1 in your reply.
1.28

Supply measured inhibition of CCn1c(-c2nonc2N)nc2c(N3CCCC3)nccc21 in your reply.
3.05

Supply measured inhibition of COc1ccc(-c2ccncc2)cc1C(N)=O in your reply.
2.74

Supply measured inhibition of O=C(Nc1n[nH]c2nc(-c3ccco3)c(Br)cc12)C1CC1 in your reply.
-0.77

Supply measured inhibition of CC1=C(C(=O)Nc2ccc3[nH]ncc3c2)C(c2ccc(F)cc2)NC(=O)N1 (stereo not given) in your reply.
1.22

Supply measured inhibition of COC(=O)Nc1nc2cc(Oc3cccc(NC(=O)Nc4cc(C(F)(F)F)ccc4F)c3)ccc2[nH]1 in your reply.
-1.4

---

Exercise: state measured inhibition for each of the molecules provided.
target_under_test: Protein kinase C beta type (Homo sapiens);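 further: mean inhibition value, enzyme form tested was the PKC-beta1 splice variant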
details: at 1 µM
Description: GSK_PKIS: PKC-beta1 (splice variant) mean inhibition at 1 uM [Nanosyn]
// note: answer is a bare numeric in %

Provide Protein kinase C beta type (Homo sapiens) inhibition reading for Fc1cccc(COc2ccc(Nc3ncnc4sc(-c5cccs5)cc34)cc2Cl)c1 .
-0.08

Provide Protein kinase C beta type (Homo sapiens) inhibition reading for CC1=C(C(=O)Nc2ccc3[nH]ncc3c2)C(c2ccc(F)cc2)NC(=O)N1 (stereo not drawn) .
1.36

Provide Protein kinase C beta type (Homo sapiens) inhibition reading for NCc1ccc(-c2nc(-c3ccc(Cl)c(O)c3)c(-c3ccncc3)[nH]2)cc1 .
27.9

Provide Protein kinase C beta type (Homo sapiens) inhibition reading for Cc1ccc(NC(=O)c2ccnc(N3CCCC3)c2)cc1-c1ccc(C(=O)NCC2CC2)cc1 .
-1.68

Provide Protein kinase C beta type (Homo sapiens) inhibition reading for NC(=O)c1ccc(-c2nc(-c3ccccn3)c(-c3ccc4c(c3)OCO4)[nH]2)cc1 .
2.78

Provide Protein kinase C beta type (Homo sapiens) inhibition reading for CCn1c(-c2nonc2N)nc2cncc(C(=O)N3CC[C@H](N)C3)c21 .
74.5

Provide Protein kinase C beta type (Homo sapiens) inhibition reading for COc1cc(C=NNc2ncnc3c2cnn3-c2ccccc2)ccc1O .
4.02

Provide Protein kinase C beta type (Homo sapiens) inhibition reading for CCCN1CCC=C(c2ccc(Nc3nc(Nc4ccccc4C(N)=O)c4cc[nH]c4n3)c(C)c2)C1 .
-0.64

Provide Protein kinase C beta type (Homo sapiens) inhibition reading for O=C1Nc2ccc(C(=O)c3ccco3)cc2C1=Cc1cc(Cl)c(O)c(Cl)c1 .
1.37

Provide Protein kinase C beta type (Homo sapiens) inhibition reading for NS(=O)(=O)c1cccc(-c2ccc3c(NC(=O)C4CC4)n[nH]c3c2)c1 .
2.66

Provide Protein kinase C beta type (Homo sapiens) inhibition reading for Cn1cc(C=C2C(=O)Nc3cccnc32)c2ccccc21 .
-1.44

Provide Protein kinase C beta type (Homo sapiens) inhibition reading for O=C1NC(=O)C(c2ccccc2Cl)=C1Nc1cccc(O)c1 .
5.5

Provide Protein kinase C beta type (Homo sapiens) inhibition reading for CCn1c(-c2nonc2N)nc2c(C#CC(C)(C)O)nc(OC[C@@H](N)c3ccccc3)cc21 .
36

Provide Protein kinase C beta type (Homo sapiens) inhibition reading for COc1ccc(-c2coc3ncnc(N)c23)cc1 .
-0.25

Provide Protein kinase C beta type (Homo sapiens) inhibition reading for CS(=O)(=O)CCNCc1ccc(-c2ccc3ncnc(Nc4ccc(OCc5cccc(F)c5)c(C(F)(F)F)c4)c3c2)o1 .
1.62

Provide Protein kinase C beta type (Homo sapiens) inhibition reading for CC(=O)Nc1cccc(C#Cc2cncnc2Nc2ccc(OCc3cccc(F)c3)c(Cl)c2)n1 .
8.84

Provide Protein kinase C beta type (Homo sapiens) inhibition reading for Cc1cccc(-c2n[nH]cc2-c2ccc3ncccc3n2)n1 .
0.39

Provide Protein kinase C beta type (Homo sapiens) inhibition reading for Nc1ncnc2occ(-c3ccc(NC(=O)Nc4cccc(C(F)(F)F)c4)cc3)c12 .
12.6

Provide Protein kinase C beta type (Homo sapiens) inhibition reading for c1cnn2ncc(-c3ccnc(Nc4ccc5c(c4)OCCO5)n3)c2c1 .
4.36

Provide Protein kinase C beta type (Homo sapiens) inhibition reading for COC(=O)Nc1nc2cc(Oc3ccc(NC(=O)Nc4cccc(C(=O)O)c4)cc3)ccc2[nH]1 .
1.6

Provide Protein kinase C beta type (Homo sapiens) inhibition reading for COc1cccc(-n2ncc3c(N/N=C/c4cccc(F)c4)ncnc32)c1 .
1.36

Provide Protein kinase C beta type (Homo sapiens) inhibition reading for COc1cc2ncn(-c3cc(O[C@H](C)c4ccccc4Cl)c(C(N)=O)s3)c2cc1OC .
5.95

Provide Protein kinase C beta type (Homo sapiens) inhibition reading for Cc1ccc(C(=O)NC2CCCCC2)cc1-c1ccc(C(=O)NCC2CC2)cc1 .
1.93

Provide Protein kinase C beta type (Homo sapiens) inhibition reading for CCn1c(-c2nonc2N)nc2c(C#CC(C)(C)O)nc(CN3CCCC3)cc21 .
14.2

Provide Protein kinase C beta type (Homo sapiens) inhibition reading for N#Cc1c(NC(=O)c2cccc3ccccc23)sc2c1CCCC2 .
-1.28

Provide Protein kinase C beta type (Homo sapiens) inhibition reading for CC1=C(C(=O)Nc2ccc3[nH]ncc3c2)C(c2ccc(Cl)c(Cl)c2)CC(=O)N1 (stereo not drawn) .
-0.1

Provide Protein kinase C beta type (Homo sapiens) inhibition reading for Fc1cccc(COc2ccc(Nc3ncnc4cc(-c5ccc[nH]5)sc34)cc2Cl)c1 .
0.9

Provide Protein kinase C beta type (Homo sapiens) inhibition reading for COc1ccccc1Nc1ncc(-c2ccccc2)o1 .
-6.48

Provide Protein kinase C beta type (Homo sapiens) inhibition reading for Nc1nc(-c2ccccn2)c(-c2ccc3ncccc3n2)s1 .
1.26

Provide Protein kinase C beta type (Homo sapiens) inhibition reading for NC(=O)c1cccc(Nc2nccc(Nc3cccc4[nH]ncc34)n2)c1 .
2.07

Provide Protein kinase C beta type (Homo sapiens) inhibition reading for O=C1NC(=O)C(c2cccc(Cl)c2)=C1Nc1ccc(O)c(Cl)c1 .
4.94

Provide Protein kinase C beta type (Homo sapiens) inhibition reading for COc1ccc(-c2nn3ncccc3c2-c2ccnc(Nc3ccc(Cl)c(C(F)(F)F)c3)n2)cc1 .
3.13

Provide Protein kinase C beta type (Homo sapiens) inhibition reading for CCCN1CCC(Oc2cc(Nc3nc(Nc4cccc(F)c4C(N)=O)c4cc[nH]c4n3)c(OC)cc2Cl)CC1 .
1.21

Provide Protein kinase C beta type (Homo sapiens) inhibition reading for CCn1c(-c2nonc2N)nc2cncc(C(=O)N3CCNCC3)c21 .
4.3

Provide Protein kinase C beta type (Homo sapiens) inhibition reading for CS(=O)(=O)CCNCc1ccc(-c2ccc3ncnc(Nc4ccc(OCc5ccccc5)c(Cl)c4)c3c2)o1 .
-2.64

Provide Protein kinase C beta type (Homo sapiens) inhibition reading for CN1CCC(C(=O)Nc2n[nH]c3nnc(-c4ccccc4)cc23)CC1 .
1.27

Provide Protein kinase C beta type (Homo sapiens) inhibition reading for COc1ccc(COc2ccc(Cc3cnc(N)nc3N)cc2OC)cc1 .
2.56

Provide Protein kinase C beta type (Homo sapiens) inhibition reading for CCN1CCC(CC(=O)Nc2n[nH]c3nc(-c4cccs4)c(Br)cc23)CC1 .
1.35

Cited source for all entries: ChEMBL document CHEMBL1961873
